- Test system: CAKI-1 renal
- test_name: NCI tumour cell line growth inhibition, 48 h
value_kind: TGI

{"molecule": "COc1ccc(CN(CCc2c[nH]c3ccccc23)Cc2ccc(OC)cc2)cc1", "TGI": "> 30.2 µM"}

The reported value for O=[N+]([O-])c1cccc2nccc(NCC(O)CO)c12 (stereo not given) in terms of TGI is 35.8 µM

The reported value for CCC1(N=[N+]=[N-])C(=O)Nc2cc(C)ccc2C1=O (stereo not given) in terms of TGI is > 100 µM

The reported value for C[N+]1(C)CCC(C#N)(c2ccccc2)CC1 in terms of TGI is > 100 µM

The reported value for C[C@]12CC[C@@H]3c4ccc(O)cc4CC[C@H]3[C@@H]1CC[C@@H]2NS(=O)(=O)Cc1ccc(Cl)cc1 in terms of TGI is 11.2 µM

* * *

- Tested on: SF-295 CNS
- test_name: NCI tumour cell line growth inhibition, 48 h
Below, each of the compounds is paired with its reported GI50 value.

{"compound": "C/C=C(\\C)C(=O)O[C@H]1C=CC(=O)O[C@H]1CNC(=O)[C@H](C)O", "GI50": "32.6 µM"}
{"compound": "C[C@H]1CCC/C=C/[C@@H]2C[C@H](O)C[C@H]2[C@H](O)[C@@H](S(=O)CCN(C)C)CC(=O)O1 (stereo not given in full)", "GI50": "0.524 µM"}
{"compound": "CC(NNC(=S)N1CCCCCC1)c1ccc2ccccc2n1 (stereo not given)", "GI50": "0.843 µM"}
{"compound": "O=C1CCC2(C=C(Br)C(=O)C(Br)=C2)O1", "GI50": "15.9 µM"}

# input for lookup
The reported value for COc1ccc(-c2nc(-c3ccccc3)c(-c3ccccc3)n2C2CC2)cc1OC1CCCC1 in terms of GI50 is 67.5 µM

* * *

- Test system: SK-MEL-28 melanoma
- test_name: NCI tumour cell line growth inhibition, 48 h
value_kind: TGI (µM)
Value expressed in µM; do not type the unit.

{"molecule": "CCCCc1c2c(nc3c1CCC/C3=C\\c1ccccc1)C(=O)C(CN(C)C)CC2 (stereo not given)", "value_kind": "TGI", "measurement_units": "µM", "readout_number": 28.3}

# input for lookup
COC(=O)/C(=C\c1c(C)[nH]c2ccccc12)S(=O)(=O)c1ccccc1 on SK-MEL-28 melanoma gives TGI = 18.7

* * *

- Test system: COLO 205 colon
- test_name: NCI tumour cell line growth inhibition, 48 h
Below, each of the compounds is paired with its reported TGI value.

{"compound": "CC(=O)OCC1OC(n2c(=O)n(-c3ccccc3)c(=O)c3ccccc32)C(OC(C)=O)C(OC(C)=O)C1OC(C)=O (centres undefined)", "TGI": "> 100 µM"}

The reported value for COC(=O)N/N=C/c1oc(-c2cccc([N+](=O)[O-])c2)c(-c2cccc([N+](=O)[O-])c2)c1[N+](=O)[O-] in terms of TGI is > 100 µM

The reported value for CCOC(=O)c1nc2ccc(C(F)(F)F)cc2nc1Oc1ccc(F)cc1 in terms of TGI is > 100 µM

The reported value for c1ccc(CCN(Cc2nc3ccccc3[nH]2)Cc2nc3ccccc3[nH]2)cc1 in terms of TGI is 31.2 µM

* * *

- Test system: SNB-75 CNS
- test_name: NCI tumour cell line growth inhibition, 48 h
Below, each of the molecules is paired with its reported TGI value.

Worked examples, 8 molecules total:
{"molecule": "C=CCOCn1ccc(=O)[nH]c1=O", "TGI": "> 100 µM"}
{"molecule": "Cc1c2c(n(CCc3ccccc3)c1C)NN=C(C#N)S2(=O)=O", "TGI": "> 100 µM"}
{"molecule": "Cc1ccccc1N(C)S(=O)(=O)c1ccccc1[N+](=O)[O-]", "TGI": "> 100 µM"}
{"molecule": "CC1(C)C(=O)N=C(N)N1C(=O)OCc1ccccc1", "TGI": "> 100 µM"}
{"molecule": "Cc1[nH]c(/C=C2\\C(=O)Nc3ccc(F)cc32)c(C)c1C(=O)NC[C@H](O)CN1CCOCC1", "TGI": "> 10 µM"}
{"molecule": "C=C1C(=O)C23CC1C[C@H](OC(C)=O)C2C1(C)C(OC(C)=O)C[C@H](O)C(C)(C)[C@H]1C(O)[C@@H]3OC(C)=O (stereo partly specified)", "TGI": "36.3 µM"}
{"molecule": "CC1[C@@H](OCc2ccccc2)COC(=O)N1Cc1ccccc1 (stereo partly specified)", "TGI": "> 100 µM"}
{"molecule": "[N-]=[N+]=NC1C(Br)C(=O)NC(=O)N1[C@H]1C[C@H](O)[C@@H](CO)O1 (stereo partly specified)", "TGI": "> 100 µM"}

The reported value for Cc1nc2cccc(NCc3ccc(C(=O)NO)cc3)c2c(=O)n1-c1ccccc1 in terms of TGI is 5.46 µM

The reported value for CC(=O)OCC1OC(n2c(=O)n(-c3ccccc3)c(=O)c3ccccc32)C(OC(C)=O)C(OC(C)=O)C1OC(C)=O (stereo unspecified) in terms of TGI is > 100 µM

The reported value for C[C@]12CCC(=O)C(O)=C1CC[C@@H]1[C@@H]2CC[C@]2(C)C(=O)CC[C@@H]12 in terms of TGI is > 100 µM

The reported value for Cc1sc2nc3n(c(=O)c2c1C)N=C(c1ccc(Cl)cc1)CS3 in terms of TGI is > 100 µM

The reported value for COC(=O)[C@H](Cc1ccccc1)NC(=O)N1CCN(C(=O)N[C@@H](Cc2ccccc2)C(=O)OC)CCN(C(=O)N[C@@H](Cc2ccccc2)C(=O)OC)CC1 in terms of TGI is > 100 µM

The reported value for O=C1C(=O)c2ccccc2C(O)=C1C(CCc1ccccc1)C1=C(O)c2ccccc2C(=O)C1=O in terms of TGI is > 100 µM

The reported value for CC(=O)Nc1ccc2c(C)c3c4ccccc4n(C)c3nc2n1 in terms of TGI is > 100 µM

The reported value for N#C/C=C1\C=CC(O)C(O)C1OC1OC(CO)C(O)C(O)C1O (stereo unspecified) in terms of TGI is > 100 µM

The reported value for CC(C)/C=N\n1c(N)c(C#N)c(C#N)c1C(C)C in terms of TGI is 40.4 µM

The reported value for CC1=NN(C(=O)Cc2ccccc2)C(=O)/C1=C\C=C\c1ccccc1 in terms of TGI is > 100 µM

The reported value for O=[N+]([O-])/C=C/c1c[nH]c2ccccc12 in terms of TGI is 16.3 µM

The reported value for O=S(=O)(O)c1c(N=Nc2c(O)ccc3ccccc23)ccc2ccccc12 in terms of TGI is > 100 µM

The reported value for O=c1cc(-c2ccccc2)nc2n1CCN2Cc1ccccc1 in terms of TGI is > 100 µM

* * *

- Test system: OVCAR-5 ovarian
- test_name: NCI tumour cell line growth inhibition, 48 h
value_kind: TGI

Worked examples, 5 molecules total:
{"molecule": "CC(C)(O)C1OCC(C2CCC3(C)C4=CCC5C(C)(C)C(O)CCC5(C)C4CCC23C)CC1O (stereo not given)", "TGI": "39.6 µM"}
{"molecule": "COC1OC(CO)C(O)C(OC(=O)c2cc(O)c(O)c(O)c2)C1OC(=O)c1cc(O)c(O)c(O)c1 (stereo not given)", "TGI": "> 100 µM"}
{"molecule": "C=C1C(=O)OC2C1C(OC(=O)/C(C)=C/C)CC1(C)C(=O)CCC(=C)C21 (stereo not given)", "TGI": "32 µM"}
{"molecule": "CC(C)CCC[C@@H](C)C1CCC2[C@@H]3CCC4CC(CCC=C(c5cc(Cl)c(OC(=O)c6ccccc6)c(C(=O)O)c5)c5cc(Cl)c(OC(=O)c6ccccc6)c(C(=O)O)c5)CC[C@]4(C)C3CC[C@@]21C (stereo not given in full)", "TGI": "> 100 µM"}
{"molecule": "COC(=N)C12C(N)=NC(OC)(OC)C1(C#N)C21C(=O)N(c2ccccc2)N=C1C (stereo not given)", "TGI": "> 100 µM"}

The reported value for CC1[C@@H](OCc2ccccc2)COC(=O)N1Cc1ccccc1 (stereo not given in full) in terms of TGI is > 100 µM

The reported value for CCCNC(=S)/N=C\c1c(O)c2ccccc2oc1=O in terms of TGI is > 100 µM

The reported value for O=[N+]([O-])C(=C(N1CCOCC1)N1CCOCC1)/C(Cl)=C(\Cl)[N+](=O)[O-] in terms of TGI is 31.4 µM

The reported value for O=S(O)c1cc(Cl)cc(Cl)c1O in terms of TGI is > 100 µM

The reported value for CCSc1nc(N=Cc2cccs2)c2cn[nH]c2n1 in terms of TGI is 50.9 µM
